Tested system: Potassium voltage-gated channel subfamily A member 5 (Homo sapiens)
Protocol text: Inhibition of human Kv1.5 channel expressed in mouse L929 cells by EP voltage clamp technique
pIC50: −log10 of the molar value.
Outcome measure: pIC50

Consider the following illustrative entries.
1) CC1=C(C(=O)NCc2ccccc2)C(c2ccc(Cl)c(Cl)c2)n2nccc2N1 (stereo unspecified)
6.80
2) CC1=C(C(=O)N2CCN(c3ccc(F)cc3)CC2)C(c2ccc3ccccc3c2)n2nccc2N1 (stereo unspecified)
6.19
3) CC1=C(C(=O)N2CCN(c3ccc(F)cc3)CC2)C(c2cc(Cl)cc(Cl)c2)n2nccc2N1 (stereo unspecified)
6.85
4) CC1=C(C(=O)N2CCN(c3ccc(F)cc3)CC2)C(c2cc3ccccc3o2)n2nccc2N1 (stereo unspecified)
6.80

A: CCCNC(=O)C1=C(C)Nc2ccnn2C1c1ccc(Cl)c(Cl)c1 (stereo unspecified)
B: CC1=C(C(=O)N2CCN(c3ccc(F)cc3)CC2)C(c2cccc(Cl)c2Cl)n2nccc2N1 (stereo unspecified)
C: CC1=C(C(=O)N2CCN(c3ccccc3)CC2)C(c2ccc(Cl)c(Cl)c2)n2nccc2N1 (stereo unspecified)
Input line: hey, can you rank those molecules up there by pIC50? biggest number first please Please list each label once, in the requested order.
Output line: C, B, A

----------
Tested system: Potassium voltage-gated channel subfamily A member 5 (Homo sapiens, UniProt P22460)
Sequence (P22460 whole entry): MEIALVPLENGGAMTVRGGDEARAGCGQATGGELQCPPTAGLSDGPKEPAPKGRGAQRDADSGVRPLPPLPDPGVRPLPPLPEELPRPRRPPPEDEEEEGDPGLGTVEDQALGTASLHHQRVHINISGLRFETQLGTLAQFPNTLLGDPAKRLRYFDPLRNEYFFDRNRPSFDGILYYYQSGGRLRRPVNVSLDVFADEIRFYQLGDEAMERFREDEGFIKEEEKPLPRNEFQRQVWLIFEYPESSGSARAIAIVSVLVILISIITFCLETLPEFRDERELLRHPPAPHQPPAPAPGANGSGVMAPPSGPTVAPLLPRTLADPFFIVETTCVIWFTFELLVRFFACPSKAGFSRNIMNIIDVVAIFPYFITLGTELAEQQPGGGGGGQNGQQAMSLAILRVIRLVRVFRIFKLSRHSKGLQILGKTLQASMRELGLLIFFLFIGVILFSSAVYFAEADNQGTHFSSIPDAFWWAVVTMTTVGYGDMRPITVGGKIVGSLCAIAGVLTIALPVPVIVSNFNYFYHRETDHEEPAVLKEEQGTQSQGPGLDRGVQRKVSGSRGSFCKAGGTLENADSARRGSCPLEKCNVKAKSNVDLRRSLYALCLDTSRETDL
Protocol text: Inhibition of human Kv1.5 channel expressed in Xenopus oocytes at 3 uM by EP voltage clamp technique
Type: cell-based
Condition description: Oocyte
Outcome measure: inhibition (%)

1. COc1ccc(C2C(C(=O)N3CCN(c4ccc(F)cc4)CC3)=C(C)Nc3ccnn32)cc1OC (centres undefined)
1

I: CC1=C(C(=O)N2CCN(c3ccc(F)cc3)CC2)C(c2ccc3ccccc3n2)n2nccc2N1 (centres undefined)
II: CC1=C(C(=O)N2CCN(c3ccc(F)cc3)CC2)C(c2ccc(C)s2)n2nccc2N1 (centres undefined)
III: CC1=C(C(=O)N2CCN(c3ccc(F)cc3)CC2)C(c2ccc(C)o2)n2nccc2N1 (centres undefined)
IV: CC1=C(C(=O)N2CCN(c3ccc(F)cc3)CC2)[C@@H](c2cccc(Cl)c2Cl)n2nccc2N1
Input line: Rank the items in ascending order with respect to inhibition. Please list each label once, in the requested order.
Output line: II, III, I, IV
(II: 1%, III: 7%, I: 29%, IV: 67%)

----------
Tested system: Potassium voltage-gated channel subfamily A member 5 (Homo sapiens, UniProt P22460)
Protocol text: Inhibition of human Kv1.5 channel expressed in Xenopus oocytes at 3 uM by EP voltage clamp technique
Format: cell-based
Condition description: Oocyte
Outcome measure: inhibition (%)

Consider the following illustrative entries.
1) CC1=C(C(=O)NCc2ccccc2)C(c2ccc(Cl)c(Cl)c2)n2nccc2N1 (stereo not given)
62
2) Cc1nc2ccnn2c(-c2cccc(Cl)c2Cl)c1C(=O)N1CCN(c2ccc(F)cc2)CC1
17
3) CCCN(CCC)C(=O)C1=C(C)Nc2ccnn2C1c1ccc(Cl)c(Cl)c1 (stereo not given)
72

1: CC1=C(C(=O)N2CCOCC2)C(c2ccc(Cl)c(Cl)c2)n2nccc2N1 (stereo not given)
2: CC1=C(C(=O)N2CCN(c3ccc(F)cc3)CC2)C(c2ccccc2[N+](=O)[O-])n2nccc2N1 (stereo not given)
Input line: Hello, I am sorting some records. Could you say if 1 or 2 has the smaller inhibition value? Provide the label of your selected option as the answer.
Output line: 2
(2: 4%, 1: 17%)

----------
Tested system: Potassium voltage-gated channel subfamily A member 5 (Homo sapiens, UniProt P22460)
Protocol text: Inhibition of human Kv1.5 channel expressed in mouse L929 cells by EP voltage clamp technique
Outcome measure: IC50 (nM)

Consider the following illustrative entries.
1. CCCCCN(CCCCC)C(=O)C1=C(C)Nc2ccnn2C1c1ccc(Cl)c(Cl)c1 (centres undefined)
580
2. COC(=O)C1=C(C)NC(C)=C(C(=O)OC)C1c1ccccc1[N+](=O)[O-] [NIFEDIPINE]
6100
3. CC1=C(C(=O)NCCc2ccccc2)C(c2ccc(Cl)c(Cl)c2)n2nccc2N1 (centres undefined)
100

A: CCCN(CCC)C(=O)C1=C(C)Nc2ccnn2C1c1ccc(Cl)c(Cl)c1 (centres undefined)
B: CC1=C(C(=O)N2CCN(c3ccc(F)cc3)CC2)C(c2cccc(C)c2)n2nccc2N1 (centres undefined)
Input line: Could you point out whether the larger IC50 belongs to A or to B ? Provide the label of your selected option as the answer.
Output line: B

1: CCCCNC(=O)C1=C(C)Nc2ccnn2C1c1ccc(Cl)c(Cl)c1 (centres undefined)
2: CC1=C(C(=O)N2CCN(c3ccc(F)cc3)CC2)C(c2cccc(Cl)c2)n2nccc2N1 (centres undefined)
Input line: Could you point out whether the larger IC50 belongs to 1 or to 2 ? Provide the label of your selected option as the answer.
Output line: 1
(1: 440 nM, 2: 190 nM)

P: CC1=C(C(=O)N2CCN(c3ccc(F)cc3)CC2)[C@@H](c2cccc(Cl)c2Cl)n2nccc2N1
Q: CCCCN(CCCC)C(=O)C1=C(C)Nc2ccnn2C1c1ccc(Cl)c(Cl)c1 (centres undefined)
Input line: Could you point out whether the larger IC50 belongs to P or to Q ? Provide the label of your selected option as the answer.
Output line: Q

a: CC1=C(C(=O)N2CCN(c3ccc(F)cc3)CC2)C(c2sc3ccccc3c2C)n2nccc2N1 (centres undefined)
b: CC1=C(C(=O)N2CCN(c3ccc(F)cc3)CC2)C(c2ccc(Cl)c(Cl)c2)n2nccc2N1 (centres undefined)
c: CCN(CC)C(=O)C1=C(C)Nc2ccnn2C1c1ccc(Cl)c(Cl)c1 (centres undefined)
d: CC1=C(C(=O)N2CCN(c3ccc(F)cc3)CC2)C(c2cc(Cl)ccc2Cl)n2nccc2N1 (centres undefined)
Input line: Rank the items in ascending order with respect to IC50. Please list each label once, in the requested order.
Output line: b, a, c, d
(b: 120 nM, a: 200 nM, c: 440 nM, d: 820 nM)

----------
Tested system: Potassium voltage-gated channel subfamily A member 5 (Homo sapiens, UniProt P22460)
Protocol text: Inhibition of human Kv1.5 channel expressed in Xenopus oocytes at 3 uM by EP voltage clamp technique
Assay type: cell-based
Condition description: Oocyte
Outcome measure: inhibition (%)

1) CC1=C(C(=O)N2CCN(c3ccc(F)cc3)CC2)C(c2cccc(C#N)c2)n2nccc2N1 (configuration not stated)
11
2) CC1=C(C(=O)N2CCN(c3ccc(F)cc3)CC2)C(c2ccc(C)cc2)n2nccc2N1 (configuration not stated)
27
3) CC1=C(C(=O)N2CCC2)C(c2ccc(Cl)c(Cl)c2)n2nccc2N1 (configuration not stated)
52
4) Cc1nc2ccnn2c(-c2ccc(Cl)c(Cl)c2)c1C(=O)N1CCCCC1
17
5) CC1=C(C(=O)N2CCN(c3ccc(F)cc3)CC2)C(c2ccccn2)n2nccc2N1 (configuration not stated)
3

a: CCCCN(CCCC)C(=O)C1=C(C)Nc2ccnn2C1c1ccc(Cl)c(Cl)c1 (configuration not stated)
b: COC[C@@H]1CCCN1C(=O)C1=C(C)Nc2ccnn2C1c1ccc(Cl)c(Cl)c1 (some centres not stated)
Input line: Could you point out whether the larger inhibition belongs to a or to b ? Provide the label of your selected option as the answer.
Output line: b
(b: 88%, a: 45%)

----------
Tested system: Potassium voltage-gated channel subfamily A member 5 (Homo sapiens, UniProt P22460)
Protocol text: Inhibition of human Kv1.5 channel expressed in mouse L929 cells by EP voltage clamp technique
pIC50: −log10 of the molar value.
Outcome measure: pIC50

Consider the following illustrative entries.
1. CC1=C(C(=O)N2CCC(c3ccccc3)CC2)C(c2ccc(Cl)c(Cl)c2)n2nccc2N1 (centres undefined)
6.80
2. CC1=C(C(=O)N2CCN(c3ccc(F)cc3)CC2)C(c2ccc(Cl)s2)n2nccc2N1 (centres undefined)
6.64

a: CC1=C(C(=O)Nc2ccccc2)C(c2ccc(Cl)c(Cl)c2)n2nccc2N1 (centres undefined)
b: CCCCCNC(=O)C1=C(C)Nc2ccnn2C1c1ccc(Cl)c(Cl)c1 (centres undefined)
Input line: Hello, I am sorting some records. Could you say if a or b has the smaller pIC50 value? Provide the label of your selected option as the answer.
Output line: b
(b: 6.23, a: 6.77)

----------
Tested system: UniProtKB P22460
Protocol text: Inhibition of human Kv1.5 channel expressed in Xenopus oocytes at 3 uM by EP voltage clamp technique
Type: cell-based
Condition description: Oocyte
Outcome measure: inhibition (%)

1. CC1=C(C(=O)N2CCN(c3ccc(F)cc3)CC2)C(c2cccc3c2OCO3)n2nccc2N1 (centres undefined)
18
2. CC1=C(C(=O)N2CCN(c3ccc(F)cc3)CC2)C(c2cnc3ccccc3c2)n2nccc2N1 (centres undefined)
17
3. CC1=C(C(=O)N2CCN(c3ccc(F)cc3)CC2)C(c2ccccc2C)n2nccc2N1 (centres undefined)
37
4. CC1=C(C(=O)N2CCN(c3ccc(F)cc3)CC2)C(c2ccccc2Cl)n2nccc2N1 (centres undefined)
30
5. CC1=C(C(=O)N2CCN(c3ccc(F)cc3)CC2)C(c2ccc(Cl)cc2)n2nccc2N1 (centres undefined)
42
6. CC1=C(C(=O)N2CCCCCC2)C(c2ccc(Cl)c(Cl)c2)n2nccc2N1 (centres undefined)
90

a: CC1=C(C(=O)N2CCN(c3ccc(F)cc3)CC2)C(c2ccc3ccccc3c2)n2nccc2N1 (centres undefined)
b: CCN(CC)C(=O)C1=C(C)Nc2ccnn2C1c1ccc(Cl)c(Cl)c1 (centres undefined)
c: CC1=C(C(=O)N2CCN(c3ccc(F)cc3)CC2)[C@H](c2ccc(Cl)c(Cl)c2)n2nccc2N1
Input line: Rank the items in ascending order with respect to inhibition. Please list each label once, in the requested order.
Output line: c, a, b
(c: 19%, a: 39%, b: 61%)
